target: chymotrypsin-like activity of purified bovine erythrocyte 20S proteasome (Bos taurus, UniProt Q32KL2); construct: from tissue; host or cells: bovine erythrocytes (red blood cells); test: Enzyme kinetic assay, chymotrypsin-like activity (Suc-LLVY-AMC); type: biochemical; conditions: Table 3
Where a SMILES comes first, the peptide text is derived from it. The star is where a group is joined. X1 = CC(C)C[C@H](N*)C(=O)[C@@]1(C)CO1
parameter.measured: kobs/[I] Chymotrypsin-like (M⁻¹ s⁻¹)

INSERT INTO measurements (compound, units_text, observed) VALUES
  ('CC(=O)N1CCC[C@H]1C(=O)N1CCC[C@H]1C(=O)N[C@@H](Cc1ccccc1)C(=O)N[C@@H](CC(C)C)C(=O)[C@@]1(C)CO1 [Ac-PPFL-Ex]', 'M⁻¹ s⁻¹', 6.4),
  ('CC(=O)NCC(=O)NCC(=O)N1CCC[C@H]1C(=O)N[C@@H](Cc1ccccc1)C(=O)N[C@@H](CC(C)C)C(=O)[C@@]1(C)CO1 [Ac-GGPFL-Ex] (Ac-GGPF-X1)', 'M⁻¹ s⁻¹', 170),
  ('CC(C)C[C@H](NC(=O)[C@H](Cc1ccccc1)NC(=O)[C@@H]1CCCN1C(=O)c1cnccn1)C(=O)C1(C)CO1 (some centres unmarked) [Pyrazinecarbonyl-PFL-Ex]', 'M⁻¹ s⁻¹', 520),
  ('CC(=O)N1CCC(C(=O)N2CCC[C@H]2C(=O)N[C@@H](Cc2ccccc2)C(=O)N[C@@H](CC(C)C)C(=O)[C@@]2(C)CO2)CC1 [N-acetyl-piperidinecarbonyl-PFL-Ex]', 'M⁻¹ s⁻¹', 31.2),
  ('CC(C)CCCCC(=O)N1CCC[C@H]1C(=O)N[C@@H](Cc1ccccc1)C(=O)N[C@@H](CC(C)C)C(=O)[C@@]1(C)CO1 [Isooctanioc-PFL-Ex]', 'M⁻¹ s⁻¹', 190),
  ('CCCC[C@H](NC(C)=O)C(=O)N1CCC[C@H]1C(=O)N[C@@H](Cc1ccccc1)C(=O)N[C@@H](CC(C)C)C(=O)[C@@]1(C)CO1 [Ac-NorLPFL-Ex]', 'M⁻¹ s⁻¹', 1.9),
  ('CC(=O)NCC(=O)N1CCC[C@H]1C(=O)N[C@@H](Cc1ccccc1)C(=O)N[C@@H](CC(C)C)C(=O)C1(C)CO1 (some centres unmarked) [Ac-GPFL-Ex]', 'M⁻¹ s⁻¹', 5),
  ('CC(=O)N[C@@H](C)C(=O)N[C@H](C(=O)N[C@@H](CC(C)C)C(=O)[C@@]1(C)CO1)C(C)C [Ac-AVL-Ex]', 'M⁻¹ s⁻¹', 10.8),
  ('CC(C)C[C@H](NC(=O)[C@H](Cc1ccccc1)NC(=O)[C@@H]1CCCN1C(=O)c1ccc(N(C)C)cc1)C(=O)[C@@]1(C)CO1 [N-dimethylaminobenzoyl-PFL-EX]', 'M⁻¹ s⁻¹', 220),
  ('CC(=O)N1CCC[C@H]1C(=O)N[C@@H](Cc1ccccc1)C(=O)N[C@@H](CC(C)C)C(=O)[C@@]1(C)CO1 [Ac-PFL-Ex]', 'M⁻¹ s⁻¹', 42),
  ('CC[C@H](C)[C@H](NC(C)=O)C(=O)N[C@H](C(=O)N[C@@H](CC(C)C)C(=O)[C@@]1(C)CO1)C(C)C [Ac-IVL-Ex]', 'M⁻¹ s⁻¹', 5);
